Biological target: Prolyl endopeptidase FAP (Homo sapiens) (UniProt Q12884)
Sequence (Q12884 whole entry): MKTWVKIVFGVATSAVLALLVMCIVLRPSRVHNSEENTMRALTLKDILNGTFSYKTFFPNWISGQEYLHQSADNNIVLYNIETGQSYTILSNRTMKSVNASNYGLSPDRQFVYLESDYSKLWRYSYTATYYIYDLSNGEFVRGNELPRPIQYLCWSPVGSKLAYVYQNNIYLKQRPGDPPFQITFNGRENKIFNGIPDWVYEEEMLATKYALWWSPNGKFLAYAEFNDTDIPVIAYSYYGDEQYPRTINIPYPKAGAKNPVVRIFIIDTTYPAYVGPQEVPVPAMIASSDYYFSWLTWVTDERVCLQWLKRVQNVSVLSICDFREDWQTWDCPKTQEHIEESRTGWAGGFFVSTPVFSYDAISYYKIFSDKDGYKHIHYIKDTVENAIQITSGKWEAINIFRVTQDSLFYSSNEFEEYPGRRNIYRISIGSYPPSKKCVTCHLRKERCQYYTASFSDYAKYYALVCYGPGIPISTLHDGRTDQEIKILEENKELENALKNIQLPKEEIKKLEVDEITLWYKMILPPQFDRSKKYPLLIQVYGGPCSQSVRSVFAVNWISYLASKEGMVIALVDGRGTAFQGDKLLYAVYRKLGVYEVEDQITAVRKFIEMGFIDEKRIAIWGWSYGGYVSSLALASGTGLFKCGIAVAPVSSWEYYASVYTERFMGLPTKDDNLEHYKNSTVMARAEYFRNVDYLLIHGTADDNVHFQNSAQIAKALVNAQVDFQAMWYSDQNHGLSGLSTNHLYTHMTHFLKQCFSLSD
Assay: Inhibition of FAP (unknown origin) at 1 uM TR-FRET assay relative to control
Please respond with reported inhibition for every item in the list.
Include the unit right after the number.

Solved cases below.
N#C[C@@H]1CC(F)(F)CN1C(=O)CNC(=O)c1csc(Cc2ccc(Cl)c(Cl)c2)n1    99%
N#C[C@@H]1CC(F)(F)CN1C(=O)CNC(=O)c1csc(Cc2cccc(Br)c2)n1    97.5%

*Q* Checklist item: inhibition tested on Prolyl endopeptidase FAP (Homo sapiens) (UniProt Q12884), entry `N#C[C@@H]1CC(F)(F)CN1C(=O)CNC(=O)c1csc(-c2ccc3occc3c2)n1` , value?
*A* 83.4%
